Data provenance: paper PMC6627609

# ASSAYED_TARGET: UniProt:Q8ZKQ6
# MEASUREMENT_DESCRIPTION: biochemical
# Type: biochemical, S. typhimurium
Where a name gives a salt, the structure may show the parent alone.
Class yes: inhibition at 50 µM at least 1%. Class no: inhibition at 50 µM below 1%.

### Prompt Please check the record COc1ccc(CC(=O)c2ccc(O)cc2O)cc1 and state if its inhibition at 50 µM is at or above 1%.
### Response yes

### Prompt Please check the record O=C1C(CC[S+]([O-])c2ccccc2)C(=O)N(c2ccccc2)N1c1ccccc1 (centres unmarked) and state if its inhibition at 50 µM is at or above 1%.
### Response yes

### Prompt Please check the record C[C@]12CC[C@H]3[C@@H](CCC4=CC(=O)CC[C@@]43C)[C@@H]1CC[C@H]2O [EPITESTOSTERONE] and state if its inhibition at 50 µM is at or above 1%.
### Response no

### Prompt Please check the record NC[C@H]1O[C@H](O[C@H]2[C@H](O)[C@@H](O[C@H]3O[C@H](CO)[C@@H](O)[C@H](N)[C@H]3O)[C@H](N)C[C@@H]2N)[C@H](N)C[C@@H]1O and state if its inhibition at 50 µM is at or above 1%.
### Response no

### Prompt Please check the record CC1(C)S[C@@H]2[C@H](NC(=O)Cc3ccccc3)C(=O)N2[C@H]1C(=O)O and state if its inhibition at 50 µM is at or above 1%.
### Response yes

### Prompt Please check the record CCn1cc(C(=O)O)c(=O)c2cnc(N3CCCC3)nc21 and state if its inhibition at 50 µM is at or above 1%.
### Response yes

### Prompt Please check the record NCCC(=O)N[C@@H](Cc1cnc[nH]1)C(=O)O and state if its inhibition at 50 µM is at or above 1%.
### Response no

### Prompt Please check the record C=C1CC[C@H](O)C/C1=C/C=C1\CCC[C@]2(C)[C@@H]([C@H](C)CCCC(C)C)CC[C@@H]12 and state if its inhibition at 50 µM is at or above 1%.
### Response yes

### Prompt Please check the record CCCCCCCCCCCCCCCC[N+](C)(C)C [CETRIMONIUM BROMIDE] and state if its inhibition at 50 µM is at or above 1%.
### Response yes

### Prompt Please check the record O=C(O)c1ccccc1OP(=O)(O)O and state if its inhibition at 50 µM is at or above 1%.
### Response no

### Prompt Please check the record COc1cc(C(C)=O)cc(OC)c1O and state if its inhibition at 50 µM is at or above 1%.
### Response yes

### Prompt Please check the record CN1CCC(=C2c3ccccc3Sc3ccccc32)CC1 [PIMETHIXENE MALEATE] and state if its inhibition at 50 µM is at or above 1%.
### Response no

### Prompt Please check the record C=C(C)[C@@H]1CC[C@]2(CO)CC[C@]3(C)[C@H](CC[C@@H]4[C@@]5(C)CC[C@H](O)C(C)(C)[C@@H]5CC[C@]43C)[C@@H]12 and state if its inhibition at 50 µM is at or above 1%.
### Response yes

### Prompt Please check the record CC(C)NCC(O)c1cc(O)cc(O)c1 (centres unmarked) and state if its inhibition at 50 µM is at or above 1%.
### Response yes

====

# ASSAYED_TARGET: LsrK (Salmonella typhimurium)
# MEASUREMENT_DESCRIPTION: biochemical
# Type: biochemical, S. typhimurium
Class Y: inhibition at 50 µM at least 1%. Class N: inhibition at 50 µM below 1%.

### Prompt Please check the record NC[C@H](O)c1ccc(O)c(O)c1 [NOREPINEPHRINE, reference compound] and state if its inhibition at 50 µM is at or above 1%.
### Response Y

### Prompt Please check the record Nc1[nH]c(=O)ncc1F [FLUCYTOSINE] and state if its inhibition at 50 µM is at or above 1%.
### Response N

### Prompt Please check the record Oc1cc(Cl)ccc1Oc1ccc(Cl)cc1Cl [TRICLOSAN] and state if its inhibition at 50 µM is at or above 1%.
### Response Y

### Prompt Please check the record CC(=O)Oc1c2c(c(CC=C(C)C)c3c1C(=O)C1=C[C@@H]4CC5C(C)(C)OC(C/C=C(\C)C(=O)O)(C4=O)[C@@]15O3)OC(C)(CCC=C(C)C)C=C2 (stereo partly shown) [ACETYL I[…]] and state if its inhibition at 50 µM is at or above 1%.
### Response Y

### Prompt Please check the record CC[C@H]1OC(=O)[C@H](C)[C@@H](O[C@H]2C[C@@](C)(OC)[C@@H](O)[C@H](C)O2)[C@H](C)[C@@H](O[C@@H]2O[C@H](C)C[C@H](N(C)C)[C@H]2O)[C@](C)(OC)C[C@@H](C)C(=O)[C@H](C)[C@@H](O)[C@]1(C)O [CLARITHROMYCIN] and state if its inhibition at 50 µM is at or above 1%.
### Response N

====

So I've got a bunch of compounds here, and I need their Kd values.
Write down the numeric answer in µM and omit the unit.

### Prompt What Kd appears in the records for this compound with His-LsrK (Salmonella typhimurium)? O=C(O)C1=CC(=C(c2ccc(O)c(C(=O)O)c2)c2ccc(O)c(C(=O)O)c2)C=CC1=O
Sequence (Q8ZKQ6 whole entry): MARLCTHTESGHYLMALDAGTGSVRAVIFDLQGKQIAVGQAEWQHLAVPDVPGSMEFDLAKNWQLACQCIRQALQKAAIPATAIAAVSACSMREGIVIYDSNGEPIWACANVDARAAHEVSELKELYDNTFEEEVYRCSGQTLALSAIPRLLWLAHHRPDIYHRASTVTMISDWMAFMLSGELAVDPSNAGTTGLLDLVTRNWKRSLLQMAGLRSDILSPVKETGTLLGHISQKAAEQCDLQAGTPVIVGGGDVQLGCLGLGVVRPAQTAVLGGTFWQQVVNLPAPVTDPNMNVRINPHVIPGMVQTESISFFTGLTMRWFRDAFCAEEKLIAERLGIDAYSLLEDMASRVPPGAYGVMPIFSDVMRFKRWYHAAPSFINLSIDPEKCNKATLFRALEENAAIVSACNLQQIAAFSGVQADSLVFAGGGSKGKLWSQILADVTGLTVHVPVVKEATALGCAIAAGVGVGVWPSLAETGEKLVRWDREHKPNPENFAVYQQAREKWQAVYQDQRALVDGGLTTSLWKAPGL
### Response 0.408

### Prompt What Kd appears in the records for this compound with His-LsrK (Salmonella typhimurium)? C[C@]1(OC(=O)/C=C/c2ccccc2)C[C@@H](O)[C@]2(O)C=CO[C@@H](O[C@@H]3O[C@H](CO)[C@@H](O)[C@H](O)[C@H]3O)[C@@H]21 [HARPAGOSIDE]
### Response 18.4

====

# ASSAYED_TARGET: LsrK (Salmonella typhimurium, UniProt Q8ZKQ6)
# Sequence (Q8ZKQ6 whole entry): as above
# MEASUREMENT_DESCRIPTION: biochemical
# Type: biochemical, S. typhimurium
# ASSAY_CONTEXT: 50 µM
So I've got a bunch of molecules here, and I need their Inhibition (%) values.
Number only, please.

### Prompt Look at this molecule and give its reported Inhibition (%). O=c1ccn([C@@H]2O[C@H](COP(=O)([O-])OP(=O)([O-])OP(=O)([O-])O)[C@@H](O)[C@H]2O)c(=O)[nH]1.[Na+].[Na+].[Na+] [URIDINE TRIPHOSPHATE TRISODIUM]
### Response 1

### Prompt Look at this molecule and give its reported Inhibition (%). COc1cc2c3cc1Oc1cc(ccc1O)C[C@@H]1c4c(cc(OC)c(O)c4Oc4ccc(cc4)C[C@@H]3N(C)CC2)CC[N+]1(C)C.Cl.O.O.O.O.O.[Cl-] [TUBOCURARINE CHLORIDE]
### Response 0

### Prompt Look at this molecule and give its reported Inhibition (%). CC(C)c1ccc2c(c1)CCC1[C@](C)(CN)CCC[C@]21C.O=S(=O)(O)O (stereo partly drawn) [18-AMINOABIETA-8.11.13-TRIENE SULFATE]
### Response 1

### Prompt Look at this molecule and give its reported Inhibition (%). CCOc1cccc(C(=O)c2ccc(O)c(O)c2O)c1
### Response 11

### Prompt Look at this molecule and give its reported Inhibition (%). O=P([O-])(O)C(O)(Cc1cccnc1)P(=O)(O)O.[Na+] [RISEDRONATE SODIUM HYDRATE]
### Response 2

### Prompt Look at this molecule and give its reported Inhibition (%). C/C1=C2/[N-][C@H]([C@H](CC(N)=O)[C@@]2(C)CCC(=O)NC[C@@H](C)OP(=O)([O-])O[C@H]2[C@@H](O)[C@@H](n3cnc4cc(C)c(C)cc43)O[C@@H]2CO)[C@]2(C)N=C(/C(C)=C3N=C(/C=C4N=C1[C@@H](CCC(N)=O)C\4(C)C)[C@@H](CCC(N)=O)[C@]\3(C)CC(N)=O)[C@@H](CCC(N)=O)[C@]2(C)CC(N)=O.[CH2-][C@H]1O[C@@H](n2cnc3c(N)ncnc32)[C@H](O)[C@@H]1O.[Co]
### Response 20

### Prompt Look at this molecule and give its reported Inhibition (%). CN1CCC[C@H]1c1cccnc1.O=C(O)C(O)C(O)C(=O)O.O=C(O)C(O)C(O)C(=O)O [NICOTINE DITARTRATE]
### Response 0

### Prompt Look at this molecule and give its reported Inhibition (%). CCCCCCCCCCCCCCC(C(=O)O)C(O)(CC(=O)OC)C(=O)O (stereo not drawn)
### Response 8

### Prompt Look at this molecule and give its reported Inhibition (%). CC(=O)O[C@H]1C[C@@H](OC(C)=O)C(C)(C)C2C[C@@H](O)[C@]3(C)C(CC[C@@]4(C)[C@H](c5ccoc5)OC(=O)[C@H]5O[C@]543)[C@]21C (stereo partly drawn)
### Response 0

### Prompt Look at this molecule and give its reported Inhibition (%). C=C[C@@](C)(O)CC[C@H]1C(=C)C[C@H](OC(C)=O)[C@H]2C(C)(C)CCC[C@]12C [LARIXOL ACETATE]
### Response 3

### Prompt Look at this molecule and give its reported Inhibition (%). CCc1cc(Cl)c(OC)c(C(=O)NC[C@@H]2CCCN2CC)c1O.Cl [ETICLOPRIDE HYDROCHLORIDE]
### Response 2

### Prompt Look at this molecule and give its reported Inhibition (%). COc1ccc2[nH]c3c(c2c1)CCN=C3C
### Response 2
